The following molecules are shown together with reported pIC50 values.
Target: PLK1 (Homo sapiens, UniProt P53350)
Construct: Full-length, active GST-PLK1 is purified from Sf9 insect cells; made in house; host or cells: Sf9 insect cells
Sequence (P53350 whole entry): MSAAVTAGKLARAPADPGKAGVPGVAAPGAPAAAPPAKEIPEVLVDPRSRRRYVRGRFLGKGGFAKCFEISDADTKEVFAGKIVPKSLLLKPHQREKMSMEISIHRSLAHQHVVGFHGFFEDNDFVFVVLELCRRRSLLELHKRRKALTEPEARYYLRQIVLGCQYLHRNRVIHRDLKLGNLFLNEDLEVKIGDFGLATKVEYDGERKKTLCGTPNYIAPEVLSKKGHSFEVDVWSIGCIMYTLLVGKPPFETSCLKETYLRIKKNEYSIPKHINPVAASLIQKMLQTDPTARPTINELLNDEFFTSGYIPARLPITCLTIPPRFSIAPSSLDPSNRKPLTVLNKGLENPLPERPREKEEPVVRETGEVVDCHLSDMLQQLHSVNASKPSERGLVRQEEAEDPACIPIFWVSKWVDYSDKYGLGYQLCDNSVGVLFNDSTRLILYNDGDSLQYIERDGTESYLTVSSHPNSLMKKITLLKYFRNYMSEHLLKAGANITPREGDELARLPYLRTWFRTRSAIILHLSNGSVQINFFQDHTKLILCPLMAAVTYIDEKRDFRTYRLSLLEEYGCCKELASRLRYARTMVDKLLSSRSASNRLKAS
Test: Biochemical Characterization Assay: HTRF kinase assay, GST-PLK1 phosphorylation of GST-p53
Conditions: GST-PLK1, GST-p53 substrate
pIC50: −log10 of the molar value.

// below: answered molecules
CN1C(=O)C(F)(F)CN(C2CCCC2)c2nc(Nc3ccc(C(N)=O)cc3C(F)(F)F)ncc21: 6.30 to 7.29
CCCN1C(=O)C(F)(F)CN(C2CCCC2)c2nc(Nc3ccc(C(=O)NC4CCOCC4)cc3OC)ncc21: 5.30 to 6.30
CCN1C(=O)C(F)(F)CN(C2CCCC2)c2nc(Nc3ccc(C(=O)NC4CCN(C)CC4)cc3OC)ncc21: 6.30 to 7.29

The molecule CN1CCC(NC(=O)c2ccc(Nc3ncc4c(n3)N(C3CCCC3)CC(F)(F)C(=O)N4C)c(F)c2)CC1 , tested on PLK1 (Homo sapiens, UniProt P53350), showed pIC50 of 7.30 to 9.00

Item CN1C(=O)C(F)(F)CN(C2CCCCC2)c2nc(Nc3ccc(C(N)=O)cc3)ncc21 ; assay system PLK1 (Homo sapiens, UniProt P53350); pIC50 reported as 7.30 to 9.00
